These entries and their values trace back to ChEMBL document CHEMBL1275574.

# Assay procedure: Selectivity index, Ratio of MIC for Escherichia coli BL21 to fraction of human erythrocyte hemolysis at 64 uM
# Type: functional
Peptide text beside a SMILES is read from it.
Measured quantity: Selectivity Index
In your answer, state the number alone without any accompanying words.

Past entries and their recorded results:
[[record]]
compound = "CC[C@H](C)[C@H](NC(=O)[C@H](CCCCN)NC(=O)[C@H](CCCCN)NC(=O)[C@H](Cc1ccccc1)NC(=O)[C@H](CC(C)C)NC(=O)[C@H](CCCCN)NC(=O)[C@H](Cc1c[nH]c2ccccc12)NC(=O)[C@H](CCCCN)NC(C)=O)C(=O)NCC(=O)N[C@@H](C)C(=O)N[C@H](C(=O)N[C@@H](CC(C)C)C(=O)N[C@@H](CCCCN)C(=O)N[C@H](C(=O)N[C@@H](CC(C)C)C(N)=O)C(C)C)C(C)C (Ac-KWKLFKKIGAVLKVL-NH2)"
measured_quantity = "Selectivity Index"
reported_value = 2.2

[[record]]
compound = "CC[C@H](C)[C@H](NC(=O)[C@H](CCCCN)NC(=O)[C@H](CCCCN)NC(=O)[C@H](Cc1ccccc1)NC(=O)[C@H](CC(C)C)NC(=O)[C@H](CCCCN)NC(=O)[C@H](Cc1c[nH]c2ccccc12)NC(=O)[C@H](CCCCN)NC(C)=O)C(=O)NCC(=O)N[C@@H](CCCCN)C(=O)N[C@H](C(=O)N[C@@H](CC(C)C)C(=O)N[C@@H](CCCCN)C(=O)N[C@@H](CCCCN)C(=O)N[C@@H](CC(C)C)C(N)=O)C(C)C (Ac-KWKLFKKIGKVLKKL-NH2)"
measured_quantity = "Selectivity Index"
reported_value = 12.5

[[record]]
compound = "CC[C@H](C)[C@H](NC(=O)[C@H](CCCCN)NC(=O)[C@H](CCCCN)NC(=O)[C@H](Cc1ccccc1)NC(=O)[C@H](CC(C)C)NC(=O)[C@H](CCCCN)NC(=O)[C@H](Cc1c[nH]c2ccccc12)NC(=O)[C@H](CCCCN)NC(C)=O)C(=O)NCC(=O)N[C@@H](C)C(=O)N[C@H](C(=O)N[C@@H](CC(C)C)C(=O)N[C@@H](CCCCN)C(=O)N[C@@H](CCCCN)C(=O)N[C@@H](CC(C)C)C(N)=O)C(C)C (Ac-KWKLFKKIGAVLKKL-NH2)"
measured_quantity = "Selectivity Index"
reported_value = 6.25


Enquiry: Let me know recorded Selectivity Index for CC[C@H](C)[C@H](NC(=O)[C@H](CCCCN)NC(=O)[C@H](CCCCN)NC(=O)[C@H](Cc1ccccc1)NC(=O)[C@H](CCCCN)NC(=O)[C@H](CCCCN)NC(=O)[C@H](Cc1c[nH]c2ccccc12)NC(=O)[C@H](CCCCN)NC(C)=O)C(=O)NCC(=O)N[C@@H](CCCCN)C(=O)N[C@H](C(=O)N[C@@H](CC(C)C)C(=O)N[C@@H](CCCCN)C(=O)N[C@H](C(=O)N[C@@H](CC(C)C)C(N)=O)C(C)C)C(C)C (Ac-KWKKFKKIGKVLKVL-NH2) , thanks.
Return: 22

Enquiry: Let me know recorded Selectivity Index for CC[C@H](C)[C@H](NC(=O)[C@H](CCCCN)NC(=O)[C@H](CCCCN)NC(=O)[C@H](Cc1ccccc1)NC(=O)[C@H](CC(C)C)NC(=O)[C@H](CCCCN)NC(=O)[C@H](Cc1c[nH]c2ccccc12)NC(=O)[C@H](CCCCN)NC(C)=O)C(=O)NCC(=O)N[C@@H](CCCCN)C(=O)N[C@H](C(=O)N[C@@H](CC(C)C)C(=O)N[C@@H](CCCCN)C(=O)N[C@H](C(=O)N[C@@H](CC(C)C)C(N)=O)C(C)C)C(C)C (Ac-KWKLFKKIGKVLKVL-NH2) , thanks.
Return: 1.5

Enquiry: Let me know recorded Selectivity Index for CC[C@H](C)[C@H](NC(=O)[C@H](CCCCN)NC(=O)[C@H](CCCCN)NC(=O)[C@H](Cc1ccccc1)NC(=O)[C@H](CCCCN)NC(=O)[C@H](CCCCN)NC(=O)[C@H](Cc1c[nH]c2ccccc12)NC(=O)[C@H](CCCCN)NC(C)=O)C(=O)NCC(=O)N[C@@H](C)C(=O)N[C@H](C(=O)N[C@@H](CC(C)C)C(=O)N[C@@H](CCCCN)C(=O)N[C@H](C(=O)N[C@@H](CC(C)C)C(N)=O)C(C)C)C(C)C (Ac-KWKKFKKIGAVLKVL-NH2) , thanks.
Return: 9.5

Enquiry: Let me know recorded Selectivity Index for CC[C@H](C)[C@H](NC(=O)[C@H](CCCCN)NC(=O)[C@H](CCCCN)NC(=O)[C@H](Cc1ccccc1)NC(=O)[C@H](CCCCN)NC(=O)[C@H](CCCCN)NC(=O)[C@H](Cc1c[nH]c2ccccc12)NC(=O)[C@H](CCCCN)NC(C)=O)C(=O)NCC(=O)N[C@@H](C)C(=O)N[C@H](C(=O)N[C@@H](CC(C)C)C(=O)N[C@@H](CCCCN)C(=O)N[C@@H](CCCCN)C(=O)N[C@@H](CC(C)C)C(N)=O)C(C)C (Ac-KWKKFKKIGAVLKKL-NH2) , thanks.
Return: 16.7

====

Known MIC of a selection of compounds
# Test system: Pseudomonas aeruginosa
# Assay procedure: Antimicrobial activity against Pseudomonas aeruginosa PAO1
# Assay type: functional
Peptide text beside a SMILES is read from it.
Report only the number, with the unit µM understood.

[[record]]
compound = "CC[C@H](C)[C@H](NC(=O)[C@H](CCCCN)NC(=O)[C@H](CCCCN)NC(=O)[C@H](Cc1ccccc1)NC(=O)[C@H](CCCCN)NC(=O)[C@H](CCCCN)NC(=O)[C@H](Cc1c[nH]c2ccccc12)NC(=O)[C@H](CCCCN)NC(C)=O)C(=O)NCC(=O)N[C@@H](C)C(=O)N[C@H](C(=O)N[C@@H](CC(C)C)C(=O)N[C@@H](CCCCN)C(=O)N[C@@H](CCCCN)C(=O)N[C@@H](CC(C)C)C(N)=O)C(C)C (Ac-KWKKFKKIGAVLKKL-NH2)"
unit_descriptor = "µM"
reported_value = 1

[[record]]
compound = "CC[C@H](C)[C@H](NC(=O)[C@H](CCCCN)NC(=O)[C@H](CCCCN)NC(=O)[C@H](Cc1ccccc1)NC(=O)[C@H](CC(C)C)NC(=O)[C@H](CCCCN)NC(=O)[C@H](Cc1c[nH]c2ccccc12)NC(=O)[C@H](CCCCN)NC(C)=O)C(=O)NCC(=O)N[C@@H](C)C(=O)N[C@H](C(=O)N[C@@H](CC(C)C)C(=O)N[C@@H](CCCCN)C(=O)N[C@@H](CCCCN)C(=O)N[C@@H](CC(C)C)C(N)=O)C(C)C (Ac-KWKLFKKIGAVLKKL-NH2)"
unit_descriptor = "µM"
reported_value = 2

[[record]]
compound = "CC[C@H](C)[C@H](NC(=O)[C@H](CCCCN)NC(=O)[C@H](CCCCN)NC(=O)[C@H](Cc1ccccc1)NC(=O)[C@H](CC(C)C)NC(=O)[C@H](CCCCN)NC(=O)[C@H](Cc1c[nH]c2ccccc12)NC(=O)[C@H](CCCCN)NC(C)=O)C(=O)NCC(=O)N[C@@H](CCCCN)C(=O)N[C@H](C(=O)N[C@@H](CC(C)C)C(=O)N[C@@H](CCCCN)C(=O)N[C@H](C(=O)N[C@@H](CC(C)C)C(N)=O)C(C)C)C(C)C (Ac-KWKLFKKIGKVLKVL-NH2)"
unit_descriptor = "µM"
reported_value = 1

[[record]]
compound = "CC[C@H](C)[C@H](NC(=O)[C@H](CCCCN)NC(=O)[C@H](CCCCN)NC(=O)[C@H](Cc1ccccc1)NC(=O)[C@H](CCCCN)NC(=O)[C@H](CCCCN)NC(=O)[C@H](Cc1c[nH]c2ccccc12)NC(=O)[C@H](CCCCN)NC(C)=O)C(=O)NCC(=O)N[C@@H](CCCCN)C(=O)N[C@H](C(=O)N[C@@H](CC(C)C)C(=O)N[C@@H](CCCCN)C(=O)N[C@H](C(=O)N[C@@H](CC(C)C)C(N)=O)C(C)C)C(C)C (Ac-KWKKFKKIGKVLKVL-NH2)"
unit_descriptor = "µM"
reported_value = 0.5

[[record]]
compound = "CC[C@H](C)[C@H](NC(=O)[C@H](CCCCN)NC(=O)[C@H](CCCCN)NC(=O)[C@H](Cc1ccccc1)NC(=O)[C@H](CCCCN)NC(=O)[C@H](CCCCN)NC(=O)[C@H](Cc1c[nH]c2ccccc12)NC(=O)[C@H](CCCCN)NC(C)=O)C(=O)NCC(=O)N[C@@H](C)C(=O)N[C@H](C(=O)N[C@@H](CC(C)C)C(=O)N[C@@H](CCCCN)C(=O)N[C@H](C(=O)N[C@@H](CC(C)C)C(N)=O)C(C)C)C(C)C (Ac-KWKKFKKIGAVLKVL-NH2)"
unit_descriptor = "µM"
reported_value = 0.5


Enquiry: Let me know recorded MIC for CC[C@H](C)[C@H](NC(=O)[C@H](CCCCN)NC(=O)[C@H](CCCCN)NC(=O)[C@H](Cc1ccccc1)NC(=O)[C@H](CC(C)C)NC(=O)[C@H](CCCCN)NC(=O)[C@H](Cc1c[nH]c2ccccc12)NC(=O)[C@H](CCCCN)NC(C)=O)C(=O)NCC(=O)N[C@@H](CCCCN)C(=O)N[C@H](C(=O)N[C@@H](CC(C)C)C(=O)N[C@@H](CCCCN)C(=O)N[C@@H](CCCCN)C(=O)N[C@@H](CC(C)C)C(N)=O)C(C)C (Ac-KWKLFKKIGKVLKKL-NH2) , thanks.
Return: 1

Enquiry: Let me know recorded MIC for CC[C@H](C)[C@H](NC(=O)[C@H](CCCCN)NC(=O)[C@H](CCCCN)NC(=O)[C@H](Cc1ccccc1)NC(=O)[C@H](CC(C)C)NC(=O)[C@H](CCCCN)NC(=O)[C@H](Cc1c[nH]c2ccccc12)NC(=O)[C@H](CCCCN)NC(C)=O)C(=O)NCC(=O)N[C@@H](C)C(=O)N[C@H](C(=O)N[C@@H](CC(C)C)C(=O)N[C@@H](CCCCN)C(=O)N[C@H](C(=O)N[C@@H](CC(C)C)C(N)=O)C(C)C)C(C)C (Ac-KWKLFKKIGAVLKVL-NH2) , thanks.
Return: 2
